test system: Escherichia coli; test: microbe, parasite or virus in culture
Description: Antimicrobial activity against Escherichia coli expressing beta-lactamase KPC-4 by CLSI broth microdilution method
PROPERTY MEASURED: MIC (µg/mL)
Write the number in µg/mL without appending the unit.

Please review the entries below; each comes with its answer.
- COMPOUND: "C[C@@H](O)[C@H]1C(=O)N2C(C(=O)O)=C(SCCNC=N)C[C@H]12 [IMIPENEM ANHYDROUS]"
  UNIT STRING: "µg/mL"
  MIC: 1
- COMPOUND: "Nc1nc(/C(=N/OC2(C(=O)O)CC2)C(=O)N[C@@H]2C(=O)N(S(=O)(=O)O)[C@@H]2CN2CCOC2=O)cs1 (stereo in doubt) [ANCREMONAM]"
  UNIT STRING: "µg/mL"
  MIC: 0.5
- COMPOUND: "CC1(C)[C@H](NC(=O)/C(=N\\OCc2cc(=O)c(O)cn2O)c2csc(N)n2)C(=O)N1OS(=O)(=O)O (stereo in doubt)"
  UNIT STRING: "µg/mL"
  MIC: 32
- COMPOUND: "N=C(NC1CCNCC1)c1ccc(OC[C@H](O/N=C(\\C(=O)N[C@@H]2C(=O)N(S(=O)(=O)O)[C@@H]2Cn2cncn2)c2csc(N)n2)C(=O)O)cc1 (stereo in doubt)"
  UNIT STRING: "µg/mL"
  MIC: 1

Okay, now this compound:
MIC for N=C(N)NCc1cnn(C[C@@H]2[C@H](NC(=O)/C(=N\OC3(C(=O)O)CC3)c3csc(N)n3)C(=O)N2S(=O)(=O)O)n1 (stereo in doubt) is 4
